Sourced from ChEMBL document CHEMBL1128050

molecular target: GABA-A receptor; anion channel; assay: Binding affinity to the benzodiazepine receptor assayed using 0.5 nM [3H]flunitrazapam as radioligand in guinea pig cerebellum; format: tissue-based, Cavia porcellus
pIC50: −log10 of the molar value.
Heads up, the class ranges for pIC50 are bottom (below 8), middle (8 to below 9), top (9 or more)

INPUT: Bin? `c1cnc2c(c1)ncn2-c1ccc2[nH]cc(C[C@H]3CCCN3)c2c1`
OUTPUT: bottom

INPUT: Bin? `CN1CCC[C@@H]1Cc1c[nH]c2ccc(Nc3ncccc3[N+](=O)[O-])cc12`
OUTPUT: bottom

INPUT: Bin? `Cc1ccc2c(c1)ncn2-c1ccc2[nH]cc(C3CCNCC3)c2c1`
OUTPUT: top

INPUT: Bin? `N#Cc1ccc2c(c1)ncn2-c1ccc2[nH]ccc2c1`
OUTPUT: bottom

INPUT: Bin? `Cc1ccc2c(c1)ncn2-c1ccc2[nH]cc(C[C@H]3CCCN3C)c2c1`
OUTPUT: top

INPUT: Bin? `COCCN1CCC[C@@H]1Cc1c[nH]c2ccc(-n3cnc4cc(CN)ccc43)cc12`
OUTPUT: bottom

INPUT: Bin? `CN1CCC[C@@H]1Cc1c[nH]c2ccc(-n3cnc4cc(C#N)ccc43)cc12`
OUTPUT: middle

INPUT: Bin? CN1CCC(c2c[nH]c3ccc(-n4cnc5cc(C#N)ccc54)cc23)C1 (stereo unspecified)
OUTPUT: middle

INPUT: Bin? CN1CCC[C@@H]1Cc1c[nH]c2ccc(-n3cnc4cc(NC(Cc5c[nH]c6ccccc56)C(=O)NC(=O)OCc5ccccc5)ccc43)cc12 (stereo partly specified)
OUTPUT: bottom

###

target: GABA-A receptor; anion channel; assay: Binding affinity to the benzodiazepine receptor assayed using 0.5 nM [3H]flunitrazapam as radioligand in guinea pig cerebellum; assay type: tissue-based, Cavia porcellus
# pIC50 listing for each entry below
API: returns pIC50 as number; meaning -log10 of concentration in mol/L.

// worked examples, pIC50 included
{"columns": ["smiles-str", "subject-of-test", "pIC50"],
 "data": [
  ["CN1CCC[C@H]1Cc1c[nH]c2ccc(-n3cnc4cc(C#N)ccc43)cc12", "GABA-A receptor; anion channel", 8.74],
  ["CN1CCC[C@@H]1Cc1c[nH]c2ccc(-n3cnc4cc(Cl)ccc43)cc12", "GABA-A receptor; anion channel", 8.96]
]}

INPUT: # query: pIC50 of entry `Cc1ccc2c(c1)ncn2-c1ccc2[nH]ccc2c1`
OUTPUT: 9.10

INPUT: # query: pIC50 of entry `CN1CCC[C@@H]1Cc1c[nH]c2ccc(-n3cnc4ccccc43)cc12`
OUTPUT: 7.80

INPUT: # query: pIC50 of entry `COCCN1CCC(c2c[nH]c3ccc(-n4cnc5cc(C#N)ccc54)cc23)CC1`
OUTPUT: 9.22

INPUT: # query: pIC50 of entry `COCCN1CCC[C@@H]1Cc1c[nH]c2ccc(-n3cnc4cc(NC(=O)Nc5ccccc5)ccc43)cc12`
OUTPUT: 7.77

INPUT: # query: pIC50 of entry `Cc1ccnc2c1ncn2-c1ccc2[nH]cc(C[C@H]3CCCN3C)c2c1`
OUTPUT: 7.92
